All values here come from ChEMBL document CHEMBL1145673.

system: Hepatocyte; test: Antihepatotoxic activity against 1.5 hrs galactosamine pretreatment-induced cytotoxicity in Wistar rat hepatocytes assessed as glutamic-pyruvic transaminase activity at 0.1 mg/ml after 30 hrs relative to control; assay type: functional
Item-by-item account of Activity

# example entries with known answers
molecule	Activity
COc1cc(C2Oc3cc([C@H]4Oc5cc(O)cc(O)c5C(=O)[C@@H]4O)ccc3OC2CO)ccc1O (stereo partly drawn)	103%
CSCC[C@H](N)C(=O)O	113%
COc1cc(C(=O)O[C@H]2[C@@H]3C=CO[C@@H](O[C@@H]4O[C@H](CO)[C@@H](O)[C@H](O)[C@H]4O)[C@@H]3[C@@]3(CO)O[C@@H]23)ccc1O [PICROSIDE II]	101%
CC1(C)[C@@H](O)CC[C@]2(C)[C@H]3C(=O)C=C4[C@@H]5C[C@@](C)(C(=O)O)CC[C@]5(C)CC[C@@]4(C)[C@]3(C)CC[C@@H]12	58%
COc1cc([C@@H]2c3cc4c(cc3C[C@H]3COC(=O)[C@@H]32)OCO4)cc(OC)c1OC	50%
CC1(C)[C@@H](O[C@H]2O[C@H](C(=O)O)[C@@H](O)[C@H](O)[C@H]2O[C@@H]2O[C@H](C(=O)O)[C@@H](O)[C@H](O)[C@H]2O)CC[C@]2(C)[C@H]3C(=O)C=C4[C@@H]5C[C@@](C)(C(=O)O)CC[C@]5(C)CC[C@@]4(C)[C@]3(C)CC[C@@H]12	100%

-- ask Can you look up the measured Activity of O=C(/C=C/c1ccccc1)OC[C@H]1O[C@@H](O[C@@H]2OC=C[C@H]3[C@H](O)[C@@H]4O[C@]4(CO)[C@@H]23)[C@H](O)[C@@H](O)[C@@H]1O [PICROSIDE I] for me?
-- reply 122%

-- ask Moving on to the next molecule: "O=C(/C=C/c1ccc(O)c(O)c1)O[C@@H]1C[C@@](OC(=O)/C=C/c2ccc(O)c(O)c2)(C(=O)O)C[C@@H](O)[C@@H]1O"
-- reply 84%

====

system: Hepatocyte; assay: Cytotoxicity in Wistar rat hepatocytes assessed as glutamic-pyruvic transaminase activity at 0.1 mg/ml after 30 hrs; format: cell-based
quantity-measured: Activity (IU/L)
Answer format: numeric, IU/L implied, no suffix.

compound	Activity (IU/L)
O=C(/C=C/c1ccc(O)c(O)c1)O[C@@H]1C[C@@](OC(=O)/C=C/c2ccc(O)c(O)c2)(C(=O)O)C[C@@H](O)[C@@H]1O [CYNARIN]	27

-- ask Give the measured Activity of COc1cc([C@@H]2c3cc4c(cc3C[C@H]3COC(=O)[C@@H]32)OCO4)cc(OC)c1OC [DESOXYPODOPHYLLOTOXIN] .
-- reply 35

-- ask Also, CSCC[C@H](N)C(=O)O [METHIONINE] please.
-- reply 28

-- ask Follow-up item: CC1(C)[C@@H](O)CC[C@]2(C)[C@H]3C(=O)C=C4[C@@H]5C[C@@](C)(C(=O)O)CC[C@]5(C)CC[C@@]4(C)[C@]3(C)CC[C@@H]12 [ENOXOLONE]
-- reply 16

-- ask What about this compound? CC1(C)[C@@H](O[C@H]2O[C@H](C(=O)O)[C@@H](O)[C@H](O)[C@H]2O[C@@H]2O[C@H](C(=O)O)[C@@H](O)[C@H](O)[C@H]2O)CC[C@]2(C)[C@H]3C(=O)C=C4[C@@H]5C[C@@](C)(C(=O)O)CC[C@]5(C)CC[C@@]4(C)[C@]3(C)CC[C@@H]12 [GLYCYRRHIZIN]
-- reply 59
